Attribution: the supplement of paper PMC8617591

Test system: Mycobacterium tuberculosis Erdman (autoluminescent)
protocol: total FIC90 (Loewe) at 90% inhibition, three-drug combination (log2); higher = more antagonistic
details: in vitro model: butyrate; time point: constant (~7 days, model-specific)
quantity: total FIC90

compound="COc1nc2ccc(Br)cc2cc1[C@@H](c1ccccc1)[C@@](O)(CCN(C)C)c1cccc2ccccc12 [bedaquiline] + COc1c(N2C[C@@H]3CCCN[C@@H]3C2)c(F)cc2c(=O)c(C(=O)O)cn(C3CC3)c12 [moxifloxacin] + O=[N+]([O-])c1cn2c(n1)OC[C@@H](OCc1ccc(OC(F)(F)F)cc1)C2 [pretomanid]" reported_result=1.4
compound="CC(C)/N=c1\\cc2n(-c3ccc(Cl)cc3)c3ccccc3nc-2cc1Nc1ccc(Cl)cc1 [clofazimine] + NNC(=O)c1ccncc1 [isoniazid] + CC(=O)NC[C@H]1CN(c2ccc(N3CCOCC3)c(F)c2)C(=O)O1 [linezolid]" reported_result=1.87
compound="CC(=O)NC[C@H]1CN(c2ccc(N3CCOCC3)c(F)c2)C(=O)O1 [linezolid] + COc1c(N2C[C@@H]3CCCN[C@@H]3C2)c(F)cc2c(=O)c(C(=O)O)cn(C3CC3)c12 [moxifloxacin] + O=[N+]([O-])c1cn2c(n1)OC[C@@H](OCc1ccc(OC(F)(F)F)cc1)C2" reported_result=0.801
compound="CC(C)/N=c1\\cc2n(-c3ccc(Cl)cc3)c3ccccc3nc-2cc1Nc1ccc(Cl)cc1 [clofazimine] + O=[N+]([O-])c1cn2c(n1)OC[C@@H](OCc1ccc(OC(F)(F)F)cc1)C2 [pretomanid] + NC(=O)c1cnccn1 [pyrazinamide]" reported_result=1.93
